# System: OVCAR-3 ovarian
# Protocol Text: NCI tumour cell line growth inhibition, 48 h

Compound | TGI
CC1(C)N=C(N)N=C(N)N1c1ccc(OCC(=O)N2CCOCC2)c(Cl)c1 | > 100 µM
O=C1C2C(C(=O)N1c1ccccc1)C1(c3ccccc3)OC2(c2ccccc2)c2ccccc21 (stereo unspecified) | > 100 µM
COc1ccc(CC2NCCc3cc(OC)c(OC)cc32)cc1 (stereo unspecified) | > 100 µM
C=CCC12CC(=O)C=C1CCC1(C2)OCCO1 (stereo unspecified) | > 100 µM
Clc1ccc2c(c1)CC1C[N+]3=C(CCCC3)C1=C2 (stereo unspecified) | > 100 µM
COc1ccccc1-c1nc2ccccc2c(=O)[nH]1 | > 100 µM

###

# System: HS 578T breast
# Protocol Text: NCI tumour cell line growth inhibition, 48 h
Property Label: TGI

Molecule | Observed Value
COc1cc(S(=O)(=O)Nc2ccc(-c3csc(N4C(=O)C(C)SC4c4ccccc4O)n3)cc2)ccc1Cl (configuration not stated) | 90.4 µM
COc1ccc(Cn2cc3c(c2-c2ccc(O)cc2)CCc2cnoc2-3)cc1 | 6.62 µM
CN1C(=O)c2cc([N+](=O)[O-])ccc2[C@H]2C(=O)c3cc4c(cc3[C@H]21)OCO4 | > 100 µM
COP(=O)(OC)C(O)/C=C(\Cl)c1ccc(Cl)cc1 (configuration not stated) | > 100 µM
COc1ccc(N2CCN(Cc3c(C(C)=O)[n+](=O)c4ccccc4n3[O-])CC2)cc1 | > 100 µM
O=C(O)CSc1nnc(CCCCCCCCc2nnc(SCC(=O)O)o2)o1 | > 100 µM
C=C(C)[C@@H]1CC[C@]2(C(=O)O)CC[C@]3(C)[C@H](CC[C@@H]4[C@@]5(C)C[C@@H](CC#Cc6ccc(Br)cc6)C(=O)C(C)(C)[C@@H]5CC[C@]43C)[C@@H]12 | > 100 µM

###

# Test system: EKVX NSCLC
# Protocol Text: NCI tumour cell line growth inhibition, 48 h
# reported TGI; entries follow

Compound | TGI
COc1cc(C(=O)N2CCN(c3ccccc3OC)CC2)c(N)cc1OCc1ccccc1 | > 100 µM
O/N=C1/CCCCCC1NO (centres undefined) | > 100 µM
CC1(C)O[C@H]2[C@@H]3N=C(c4ccccc4)O[C@@H]3C=C[C@H]2O1 | > 100 µM
CCCC(=O)Nc1cc([N+](=O)[O-])c([N+](=O)[O-])cc1OC | 31.8 µM

###

# System: SF-295 CNS
# Protocol Text: NCI tumour cell line growth inhibition, 48 h
Property Label: TGI

Compound String | Observed Value
COc1cc(Nc2ncc3c(C)nc(-c4cccc(Oc5ccccc5)c4)n3n2)cc(OC)c1OC | > 25 µM
COc1cc(CNC(=O)[C@H](Cc2ccc(O)cn2)NC(C)=O)cc(OC)c1 | > 100 µM
CCOC(=O)NC(NNc1ccc([N+](=O)[O-])cc1[N+](=O)[O-])(C(F)(F)F)C(F)(F)F | > 100 µM

###

# Tested on: HCT-15 colon
# Protocol Text: NCI tumour cell line growth inhibition, 48 h

Molecule | TGI
CCOC(=O)N[C@H]1CCc2cc(O)c(OC)c(OC)c2-c2ccc(SC)c(=O)cc21 | > 100 µM
N#CCC12CC=CCC1=C(O)C(=O)c1ccc(O)cc12 (stereo not given) | > 100 µM
COc1ccc2cc3[n+](cc2c1OC)CCc1cc2c(cc1-3)OCO2 | > 325 µM
CC(=O)O[C@H]1CC[C@H]2[C@@H]3CCC4=C(C(=O)C=CC4(C)OC(C)=O)[C@H]3CC[C@]12C (stereo not given in full) | > 100 µM
COc1ccc(-c2oc3cc(OC)c(OC)c(OC)c3c(=O)c2OC)cc1OC | > 100 µM
C=C(C)[C@@H]1CC[C@]2(C(=O)O)CC[C@]3(C)[C@H](CC[C@@H]4[C@@]5(C)C[C@@H](CC#Cc6ccc(Br)cc6)C(=O)C(C)(C)[C@@H]5CC[C@]43C)[C@@H]12 | > 100 µM
CC(=O)Nc1ccc2c(c1)C(=O)c1cccc(F)c1-2 | > 80.1 µM
Cn1c(=O)c2[nH]c(C3CC(=O)CC(c4nc5c([nH]4)c(=O)n(C)c(=O)n5C)N3)nc2n(C)c1=O (stereo not given) | > 100 µM
COc1ccc(/C(=N\O)c2cc(OC)c(OC)c(OC)c2)c(OC)c1N | > 100 µM
CCOC(=O)C1(C(=O)OCC)CSC1 | > 100 µM

// data source = PubChem BioAssay (NCI)
